Test system: SW403 caspase-3/7 Glo luminescence, 7 h
Assay: apoptosis induction by VCP inhibitors – cell-based, mechanism study for p97 inhibitor project (AID 504653)
Conditions: hits give high values
measured_attribute: maximal fold activation
One number for each entry.

{"smi": "COc1cccc2c(NCc3ccccc3)nc(NCc3cccs3)nc12", "maximal fold activation": 24}

Hey, can you go through the list below and give me maximal fold activation for every item?
1. Fc1cccc(CNc2nc(NCc3ccccc3)c3ccccc3n2)c1
2. COc1cccc(CNc2nc(NCc3ccccc3)c3ccccc3n2)c1

1. 5.9
2. 3.3

Hey, can you go through the list below and give me maximal fold activation for every item?
1. c1ccc(CNc2nc(N3CCOc4ccccc43)nc3ccsc23)cc1
2. OCCOc1cccc2c(NCc3ccccc3)nc(N3CCOc4ccccc43)nc12

1. 1.4
2. 1.3
